Numbers sourced from ChEMBL document CHEMBL1201862.

Biological target: Leucine aminopeptidase (Plasmodium falciparum 3D7)
Sequence (Q8IL11 whole entry): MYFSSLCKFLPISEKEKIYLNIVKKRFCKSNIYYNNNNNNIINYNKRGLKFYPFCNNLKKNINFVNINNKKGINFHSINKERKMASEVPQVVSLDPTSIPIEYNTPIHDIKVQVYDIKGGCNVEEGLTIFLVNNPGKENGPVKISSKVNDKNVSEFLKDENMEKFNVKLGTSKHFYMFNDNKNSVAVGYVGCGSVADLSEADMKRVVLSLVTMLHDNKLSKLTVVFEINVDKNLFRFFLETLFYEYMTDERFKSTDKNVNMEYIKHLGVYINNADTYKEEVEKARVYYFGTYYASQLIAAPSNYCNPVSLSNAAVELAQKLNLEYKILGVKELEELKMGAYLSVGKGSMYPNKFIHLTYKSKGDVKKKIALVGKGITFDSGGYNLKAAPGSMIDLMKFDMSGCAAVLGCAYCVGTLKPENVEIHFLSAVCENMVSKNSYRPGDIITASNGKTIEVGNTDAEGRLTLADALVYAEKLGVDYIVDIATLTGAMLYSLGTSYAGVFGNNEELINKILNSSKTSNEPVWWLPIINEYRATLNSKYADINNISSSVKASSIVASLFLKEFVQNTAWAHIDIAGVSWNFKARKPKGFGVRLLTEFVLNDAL
Test: P. falciparum M17LAP inhibitors, primary screen, biochemical, fluorogenic H-Leu-NHMec substrate, 1536-well (AID 1619)
Assay type: functional
Activity calls are given as the source filed them.
Parameter: IC50

> print(dat)
                                   molecule     readout.value
1  CC(C)(C)c1cc(CCC(=O)NNC(=S)NC(=O)c2ccccc2)cc(C(C)(C)C)c1O  32.2 µM (active)

Prompt line: Provide measured IC50 value, entry: "O=C(NC(=S)NNS(=O)(=O)c1ccccc1)c1cccnc1"
Response line: 43.9 µM (active)

Prompt line: Provide measured IC50 value, entry: CCOc1ccc(NC(=O)CN2C(=O)CSC(C)C2=O)cc1 (stereo unspecified)
Response line: 1.21 µM (active)

Prompt line: Provide measured IC50 value, entry: COc1ccc(/C=N/N=C2\SC(CC(=O)O)C(=O)N2c2ccccc2)c(OC)c1 (stereo unspecified)
Response line: 95.3 µM (active)

Prompt line: Provide measured IC50 value, entry: Cc1sc(NC(=O)C2CCCCC2C(=O)O)c(C(N)=O)c1-c1ccc(C(C)C)cc1 (stereo unspecified)
Response line: 7.2 µM (active)

Prompt line: Provide measured IC50 value, entry: "O=C(Nc1nncs1)c1ccccc1Br"
Response line: 16 µM (active)

====

Molecular target: DNA repair and recombination protein RAD54-like (Homo sapiens, UniProt Q92698)
Sequence (Q92698 whole entry): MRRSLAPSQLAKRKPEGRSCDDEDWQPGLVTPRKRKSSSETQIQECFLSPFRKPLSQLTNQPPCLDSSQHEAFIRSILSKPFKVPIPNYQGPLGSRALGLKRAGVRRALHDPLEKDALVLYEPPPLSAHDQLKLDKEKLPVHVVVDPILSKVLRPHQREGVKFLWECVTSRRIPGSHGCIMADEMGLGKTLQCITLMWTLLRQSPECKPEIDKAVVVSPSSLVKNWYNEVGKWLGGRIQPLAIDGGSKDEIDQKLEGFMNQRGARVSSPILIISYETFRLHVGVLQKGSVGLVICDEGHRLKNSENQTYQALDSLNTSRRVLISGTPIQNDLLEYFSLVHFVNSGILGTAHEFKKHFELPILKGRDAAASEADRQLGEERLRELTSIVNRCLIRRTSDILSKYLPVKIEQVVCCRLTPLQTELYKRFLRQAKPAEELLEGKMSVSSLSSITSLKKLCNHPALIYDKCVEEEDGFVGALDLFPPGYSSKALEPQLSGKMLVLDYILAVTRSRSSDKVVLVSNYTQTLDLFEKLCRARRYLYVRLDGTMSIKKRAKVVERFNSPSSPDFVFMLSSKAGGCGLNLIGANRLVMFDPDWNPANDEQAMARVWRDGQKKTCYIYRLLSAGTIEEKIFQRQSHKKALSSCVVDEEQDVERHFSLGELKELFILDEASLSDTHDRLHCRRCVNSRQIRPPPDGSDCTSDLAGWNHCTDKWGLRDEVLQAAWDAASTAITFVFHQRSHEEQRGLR
Assay: RAD54 Holliday junction migration blockers – biochemical, fluorescence, cherry-picked samples, dose series, confirmation (AID 651657)
Type: functional
Activity calls are given as the source filed them.
Would you mind answering with one of these outcomes? 1 (yes) for active, 0 (no) for inactive

> print(dat)
                                   molecule  group.label
1  Cc1ccc2nc(O)c3cc(C(=O)NCCN4CCN(C)CC4)sc3c2c1      1 (yes)
2  Cc1cc(C)n(-c2nc(NCCN(C)C)c3c4c(sc3n2)COC(C)(C)C4)n1       0 (no)
3  COc1ccc(Cn2cc3c(-c4ccc(F)cc4)nnc-3c3cc(OC)c(OC)cc32)cc1      1 (yes)
4    Cc1ccc2nc(C)c3c(c2c1)N(c1ccc(F)cc1)CC3      1 (yes)
5  CCN(CC)CCSc1nnc2c3cc(C)ccc3n(Cc3ccccc3)c2n1      1 (yes)

Now consider a different molecule.
Prompt line: Returns: the outcome recorded for C=CCc1ccccc1OCC(O)CN1CCN(CCN2C(=O)c3cccc4cccc(c34)C2=O)CC1 (stereo unspecified) in this assay.
Response line: 1 (yes)
